systemName: FAK (Homo sapiens)
Sequence (Q05397 whole entry): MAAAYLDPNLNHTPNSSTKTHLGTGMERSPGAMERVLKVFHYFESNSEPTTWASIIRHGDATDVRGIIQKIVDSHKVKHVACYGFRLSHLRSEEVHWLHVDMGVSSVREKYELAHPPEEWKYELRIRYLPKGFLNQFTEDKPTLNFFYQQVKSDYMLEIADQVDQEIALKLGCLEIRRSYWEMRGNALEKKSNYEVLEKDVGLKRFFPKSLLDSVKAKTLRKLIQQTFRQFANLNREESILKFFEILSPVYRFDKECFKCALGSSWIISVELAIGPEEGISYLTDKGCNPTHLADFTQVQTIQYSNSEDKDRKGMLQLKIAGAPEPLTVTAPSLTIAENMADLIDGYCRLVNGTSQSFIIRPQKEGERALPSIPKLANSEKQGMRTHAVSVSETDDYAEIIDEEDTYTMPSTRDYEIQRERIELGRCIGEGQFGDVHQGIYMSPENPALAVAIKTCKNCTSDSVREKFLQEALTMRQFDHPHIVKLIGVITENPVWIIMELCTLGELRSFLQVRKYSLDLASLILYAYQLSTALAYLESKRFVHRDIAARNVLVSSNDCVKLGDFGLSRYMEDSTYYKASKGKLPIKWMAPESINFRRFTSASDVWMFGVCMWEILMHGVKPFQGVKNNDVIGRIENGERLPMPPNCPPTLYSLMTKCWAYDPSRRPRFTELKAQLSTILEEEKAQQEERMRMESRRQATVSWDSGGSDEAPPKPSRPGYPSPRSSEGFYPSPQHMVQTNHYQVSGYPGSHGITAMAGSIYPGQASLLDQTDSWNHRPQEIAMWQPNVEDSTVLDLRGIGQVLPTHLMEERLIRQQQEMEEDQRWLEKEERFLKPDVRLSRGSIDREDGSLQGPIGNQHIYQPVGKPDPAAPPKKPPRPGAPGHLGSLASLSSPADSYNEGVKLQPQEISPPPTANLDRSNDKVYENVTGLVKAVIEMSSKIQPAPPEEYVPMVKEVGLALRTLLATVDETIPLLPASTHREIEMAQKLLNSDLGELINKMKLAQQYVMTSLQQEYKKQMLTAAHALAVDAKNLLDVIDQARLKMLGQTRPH
assayRemarks: ADP-Glo Kinase Assay, FAK
Format: biochemical
Set-up: purchased Promega V1971
settings: ADP-Glo Kinase Assay Kit
// bucketize IC50: low (below 60 nM), mid (60 nM to below 80 nM), high (80 nM or more)

{"columns": ["compound", "group"],
 "data": [
  ["CNC(=O)c1cccc(C)c1Nc1nc(Nc2ccc(NC3C4CC5CC3CC(C(=O)N3CCOCC3)(C5)C4)cc2OC)ncc1C(F)(F)F (stereo not shown) [Compound 22]", "low"],
  ["CNC(=O)c1cccc(C)c1Nc1nc(Nc2ccc(N3CCN([C@H]4C5CC6CC4C[C@@](O)(C6)C5)CC3)cc2OC)ncc1C(F)(F)F [Compound 5]", "mid"],
  ["CNC(=O)c1cccc(C)c1Nc1nc(Nc2ccc(OC3C4CC5CC3CC(C(=O)N3CCOCC3)(C5)C4)cc2OC)ncc1C(F)(F)F (stereo not shown) [Compound 19]", "high"],
  ["CNC(=O)c1cccc(C)c1Nc1nc(Nc2ccc(OC34CC5CC(C3)C(=O)C(C5)C4)cc2OC)ncc1C(F)(F)F [Compound 10]", "high"],
  ["CNC(=O)c1cccc(C)c1Nc1nc(Nc2ccc(NC(=O)[C@]34CC5CC(C3)[C@@H](N3CC[C@H](NC(C)=O)C3)C(C5)C4)cc2OC)ncc1C(F)(F)F [Compound 27]", "low"],
  ["CNC(=O)c1cccc(C)c1Nc1nc(Nc2ccc(N3CCN([C@H]4C5CC6CC4C[C@](C(=O)O)(C6)C5)CC3)cc2OC)ncc1C(F)(F)F [Compound 39]", "low"],
  ["CNC(=O)c1cccc(C)c1Nc1nc(Nc2ccc(NC3CCN(C4C5CC6CC(C5)CC4C6)CC3)cc2OC)ncc1C(F)(F)F (stereo not shown) [Compound 6]", "high"],
  ["CNC(=O)c1cccc(C)c1Nc1nc(Nc2ccc(NC3C4CC5CC(C4)CC3C5)cc2OC)ncc1C(F)(F)F (stereo not shown) [Compound 2]", "high"],
  ["CNC(=O)c1cccc(C)c1Nc1nc(Nc2ccc(NC3C4CC5CC3CC(C(=O)N3CCN(C)CC3)(C5)C4)cc2OC)ncc1C(F)(F)F (stereo not shown) [Compound 23]", "mid"],
  ["CNC(=O)c1cccc(C)c1Nc1nc(Nc2ccc(NC(=O)C34CC5CC(C3)C(N3CCOCC3)C(C5)C4)cc2OC)ncc1C(F)(F)F (stereo not shown) [Compound 25]", "low"],
  ["CNC(=O)c1cccc(C)c1Nc1nc(Nc2ccc(OC3C4CC5CC3CC(C(=O)NC)(C5)C4)cc2OC)ncc1C(F)(F)F (stereo not shown) [Compound 18]", "high"],
  ["CNC(=O)c1cccc(C)c1Nc1nc(Nc2ccc(NC(=O)[C@]34CC5CC(C3)[C@H](N3CC[C@H](NC(C)=O)C3)C(C5)C4)cc2OC)ncc1C(F)(F)F [Compound 28]", "low"],
  ["CNC(=O)c1cccc(C)c1Nc1nc(Nc2ccc(NC3CCN([C@H]4C5CC6CC4C[C@](O)(C6)C5)CC3)cc2OC)ncc1C(F)(F)F [Compound 7]", "low"],
  ["CNC(=O)c1cccc(C)c1Nc1nc(Nc2ccc(OC3C4CC5CC3CC(C(=O)N3CCN(C)CC3)(C5)C4)cc2OC)ncc1C(F)(F)F (stereo not shown) [Compound 20]", "high"],
  ["CNC(=O)c1cccc(C)c1Nc1nc(Nc2ccc(NC3CCN([C@H]4C5CC6CC4C[C@@](O)(C6)C5)CC3)cc2OC)ncc1C(F)(F)F [Compound 8]", "low"],
  ["CNC(=O)c1cccc(C)c1Nc1nc(Nc2ccc(N3CCN([C@H]4C5CC6CC4C[C@](C(=O)OC)(C6)C5)CC3)cc2OC)ncc1C(F)(F)F [Compound 37]", "low"],
  ["CNC(=O)c1cccc(C)c1Nc1nc(Nc2ccc(N3CCN(C4C5CC6CC(C5)CC4C6)CC3)cc2OC)ncc1C(F)(F)F (stereo not shown) [Compound 3]", "high"],
  ["CNC(=O)c1cccc(C)c1Nc1nc(Nc2ccc(OC3CCN(C4C5CC6CC(C5)CC4C6)CC3)cc2OC)ncc1C(F)(F)F (stereo not shown) [Compound 9]", "high"],
  ["CNC(=O)c1cccc(C)c1Nc1nc(Nc2ccc(N3CCN([C@H]4C5CC6CC4C[C@](O)(C6)C5)CC3)cc2OC)ncc1C(F)(F)F [Compound 4]", "low"],
  ["CNC(=O)c1cccc(C)c1Nc1nc(Nc2ccc(N[C@H]3C4CC5CC3C[C@](O)(C5)C4)cc2OC)ncc1C(F)(F)F [Compound 1]", "high"],
  ["CNC(=O)c1cccc(C)c1Nc1nc(Nc2ccc(OC34CC5CC(C3)C(O)C(C5)C4)cc2OC)ncc1C(F)(F)F (stereo not shown) [Compound 11]", "mid"],
  ["CNC(=O)c1cccc(C)c1Nc1nc(Nc2ccc(N3CCN([C@H]4C5CC6CC4C[C@@](C(=O)OC)(C6)C5)CC3)cc2OC)ncc1C(F)(F)F [Compound 38]", "mid"],
  ["CNC(=O)c1cccc(C)c1Nc1nc(Nc2ccc(O[C@]34CC5CC(C3)[C@@H](N3CC[C@H](NC(C)=O)C3)C(C5)C4)cc2OC)ncc1C(F)(F)F [Compound 14]", "low"]
]}

###

systemName: Pyk2 (Homo sapiens, UniProt Q14289)
Construct: purchased Promega V4083
Sequence (Q14289 whole entry): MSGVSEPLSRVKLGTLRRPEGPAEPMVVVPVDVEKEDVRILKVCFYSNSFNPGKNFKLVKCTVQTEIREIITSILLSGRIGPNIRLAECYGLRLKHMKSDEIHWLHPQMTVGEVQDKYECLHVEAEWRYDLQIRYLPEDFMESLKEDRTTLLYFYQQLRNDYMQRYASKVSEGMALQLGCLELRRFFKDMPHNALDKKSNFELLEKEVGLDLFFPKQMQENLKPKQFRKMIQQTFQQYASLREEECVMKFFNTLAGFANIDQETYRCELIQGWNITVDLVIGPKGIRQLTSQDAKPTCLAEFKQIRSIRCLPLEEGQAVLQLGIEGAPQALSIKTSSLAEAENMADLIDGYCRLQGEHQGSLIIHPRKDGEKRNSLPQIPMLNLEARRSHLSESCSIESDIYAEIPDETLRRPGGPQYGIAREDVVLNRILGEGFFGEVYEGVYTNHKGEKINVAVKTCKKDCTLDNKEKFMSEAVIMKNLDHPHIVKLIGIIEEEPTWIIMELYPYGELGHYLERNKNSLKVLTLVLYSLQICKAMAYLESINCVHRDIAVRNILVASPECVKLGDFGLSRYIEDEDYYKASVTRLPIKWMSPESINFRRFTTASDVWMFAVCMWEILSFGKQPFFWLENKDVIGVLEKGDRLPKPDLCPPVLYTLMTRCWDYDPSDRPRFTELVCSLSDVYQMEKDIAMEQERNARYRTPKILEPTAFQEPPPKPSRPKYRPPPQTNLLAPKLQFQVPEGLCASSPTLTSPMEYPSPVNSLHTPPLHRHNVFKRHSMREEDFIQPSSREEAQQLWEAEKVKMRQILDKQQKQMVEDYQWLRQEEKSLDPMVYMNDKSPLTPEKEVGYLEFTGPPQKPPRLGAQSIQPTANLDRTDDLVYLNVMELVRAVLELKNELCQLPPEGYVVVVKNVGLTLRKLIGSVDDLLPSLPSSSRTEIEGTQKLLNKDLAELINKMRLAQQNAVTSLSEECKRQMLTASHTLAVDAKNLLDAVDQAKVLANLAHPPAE
assayRemarks: ADP-Glo Kinase Assay, Pyk2
Assay type: biochemical
settings: ADP-Glo Kinase Assay Kit
Each record is given 1.0 if its reported IC50 is strictly below 200 nM. Records at or above 200 nM are given 0.0.

{"columns": ["molecule", "group"],
 "data": [
  ["CNC(=O)c1cccc(C)c1Nc1nc(Nc2ccc(NC3CCN(C4C5CC6CC(C5)CC4C6)CC3)cc2OC)ncc1C(F)(F)F (stereo not drawn) [Compound 6]", 1.0],
  ["CNC(=O)c1cccc(C)c1Nc1nc(Nc2ccc(C3CCN([C@H]4C5CC6CC4C[C@](O)(C6)C5)CC3)cc2OC)ncc1C(F)(F)F [Compound 32]", 1.0],
  ["CNC(=O)c1cccc(C)c1Nc1nc(Nc2ccc(NC(=O)[C@]34CC5CC(C3)[C@@H](N3CC[C@H](NC(C)=O)C3)C(C5)C4)cc2OC)ncc1C(F)(F)F [Compound 27]", 1.0],
  ["CNC(=O)c1cccc(C)c1Nc1nc(Nc2ccc(OC34CC5CC(C3)C(O)C(C5)C4)cc2OC)ncc1C(F)(F)F (stereo not drawn) [Compound 11]", 0.0],
  ["COc1cc(C2CCN([C@H]3C4CC5CC3C[C@](O)(C5)C4)CC2)ccc1Nc1ncc(C(F)(F)F)c(Nc2c(C)cccc2C(N)=O)n1 [Compound 35]", 0.0],
  ["CNC(=O)c1cccc(C)c1Nc1nc(Nc2ccc(NC3CCN([C@H]4C5CC6CC4C[C@](O)(C6)C5)CC3)cc2OC)ncc1C(F)(F)F [Compound 7]", 1.0]
]}

###

systemName: Pyk2 (Homo sapiens, UniProt Q14289)
Construct: purchased Promega V4083
assayRemarks: ADP-Glo Kinase Assay, Pyk2
Format: biochemical
settings: ADP-Glo Kinase Assay Kit
parameterMeasured: IC50 (nM)

{"columns": ["compound", "unitAbbreviation", "numericResult"],
 "data": [
  ["CNC(=O)c1cccc(C)c1Nc1nc(Nc2ccc(NC(=O)[C@]34CC5CC(C3)[C@H](N3CC[C@H](NC(C)=O)C3)C(C5)C4)cc2OC)ncc1C(F)(F)F", "nM", 64.5],
  ["CNC(=O)c1cccc(C)c1Nc1nc(Nc2ccc(NC(=O)C34CC5CC(C3)C(N3CCOCC3)C(C5)C4)cc2OC)ncc1C(F)(F)F (centres unmarked)", "nM", 90.6],
  ["COc1cc(C2CCN([C@H]3C4CC5CC3C[C@](O)(C5)C4)CC2)ccc1Nc1ncc(C(F)(F)F)c(Nc2c(C)cccc2C(N)=O)n1 [Compound 34]", "nM", 427],
  ["CNC(=O)c1cccc(C)c1Nc1nc(Nc2ccc(N[C@H]3C4CC5CC3C[C@](O)(C5)C4)cc2OC)ncc1C(F)(F)F", "nM", 124],
  ["CNC(=O)c1cccc(C)c1Nc1nc(Nc2ccc(C3CCN([C@H]4C5CC6CC4C[C@@](O)(C6)C5)CC3)cc2OC)ncc1C(F)(F)F", "nM", 101],
  ["CNC(=O)c1cccc(C)c1Nc1nc(Nc2ccc(NC(=O)[C@]34CC5CC(C3)[C@@H](N3CC[C@H](N)C3)C(C5)C4)cc2OC)ncc1C(F)(F)F", "nM", 18.2],
  ["CNC(=O)c1cccc(C)c1Nc1nc(Nc2ccc(N3CCN(C4C5CC6CC(C5)CC4C6)CC3)cc2OC)ncc1C(F)(F)F (centres unmarked)", "nM", 256],
  ["CNC(=O)c1cccc(C)c1Nc1nc(Nc2ccc(N3CCN([C@H]4C5CC6CC4C[C@](O)(C6)C5)CC3)cc2OC)ncc1C(F)(F)F", "nM", 151]
]}
